Hello, the source for this data is paper PMC6976987, in case you need it.

Assay details: Rifampin drug interaction study: eliglustat pharmacokinetics in healthy adults
Assay type: in vivo, human
Condition details: human, plasma, iv, t1/2z, CYP2D6 PMs, eliglustat 84 mg single dose + rifampin 600 mg IV single dose, concomitant period Day 1; mean (SD)
Measure name: half-life (h)
One number for each entry, in h.

Please fill in: half-life reported for CCCCCCCC(=O)N[C@H](CN1CCCC1)[C@H](O)c1ccc2c(c1)OCCO2 = 6.9

====

Type: in vivo, human
Condition details: human, plasma, oral, 84 mg, Cmax, eliglustat 84 mg single dose, Day 1, CYP2D6 EMs only (N = 34); mean (SD)
Measure name: Cmax (ng/mL)
Give bare numbers, in ng/mL.

The compound listed as CCCCCCCC(=O)N[C@H](CN1CCCC1)[C@H](O)c1ccc2c(c1)OCCO2 has a reported Cmax of 10.3

====

Assay details: Rifampin drug interaction study: eliglustat pharmacokinetics in healthy adults
Assay type: in vivo, human
Condition details: human, plasma, oral, 127 mg, AUC0-τ, IMs/EMs only (N = 14), eliglustat 127 mg BID, monotherapy period Days 2 to 6; 0 to 12 h; mean (SD)
Measure name: AUC (ng·h/mL)
Give bare numbers, in ng·h/mL.

Briefly, AUC measured for CCCCCCCC(=O)N[C@H](CN1CCCC1)[C@H](O)c1ccc2c(c1)OCCO2 : 378

====

Assay details: Paroxetine drug interaction study: eliglustat pharmacokinetics in healthy adults
Assay type: in vivo, human
Condition details: human, plasma, oral, 84 mg, AUC0-τ, eliglustat 84 mg BID, Days 2 to 8, CYP2D6 EMs only (N = 33); 0 to 12 h; mean (SD)
Measure name: AUC (ng·h/mL)
Numbers only, in ng·h/mL.

Measured AUC, CCCCCCCC(=O)N[C@H](CN1CCCC1)[C@H](O)c1ccc2c(c1)OCCO2 : 120

====

Assay details: Rifampin drug interaction study: eliglustat pharmacokinetics in healthy adults
Format: in vivo, human
Condition details: human, plasma, oral, 127 mg, tmax, CYP2D6 non-PMs (N = 19), eliglustat 127 mg BID, monotherapy period Days 2 to 6; median (minimum, maximum)
Measure name: Tmax (h)
Answers are plain numbers, in h.

Tmax measured on CCCCCCCC(=O)N[C@H](CN1CCCC1)[C@H](O)c1ccc2c(c1)OCCO2 = 2

====

Assay details: Paroxetine drug interaction study: eliglustat pharmacokinetics in healthy adults
Format: in vivo, human
Condition details: human, plasma, oral, 84 mg, AUC0-∞, eliglustat 84 mg single dose, Day 1, all (N = 30); mean (SD)
Measure name: AUC(0-inf) (ng·h/mL)
Numbers only, in ng·h/mL.

Data point: CCCCCCCC(=O)N[C@H](CN1CCCC1)[C@H](O)c1ccc2c(c1)OCCO2 [eliglustat] ; AUC(0-inf) = 78.1

====

Assay details: Paroxetine drug interaction study: eliglustat pharmacokinetics in healthy adults
Assay type: in vivo, human
Condition details: human, plasma, oral, Cmax, eliglustat 84 mg BID + paroxetine 30 mg QD, Days 9 to 18, all (N = 33); mean (SD)
Measure name: Cmax (ng/mL)
One number for each entry, in ng/mL.

Entry under test: CCCCCCCC(=O)N[C@H](CN1CCCC1)[C@H](O)c1ccc2c(c1)OCCO2 [eliglustat] . Its Cmax was 110

====

Assay details: Rifampin drug interaction study: eliglustat pharmacokinetics in healthy adults
Format: in vivo, human
Condition details: human, plasma, po, Cmax, CYP2D6 PMs, eliglustat 84 mg BID + rifampin 600 mg oral QD, concomitant period Days 2 to 6; mean (SD)
Measure name: Cmax (ng/mL)
One number for each entry, in ng/mL.

compound CCCCCCCC(=O)N[C@H](CN1CCCC1)[C@H](O)c1ccc2c(c1)OCCO2 [eliglustat] , Cmax observed: 5.7

====

Type: in vivo, human
Condition details: human, plasma, oral, Cmax, eliglustat 84 mg BID + ketoconazole 400 mg QD, Days 9 to 15, all (N = 33); mean (SD)
Measure name: Cmax (ng/mL)
Give bare numbers, in ng/mL.

Sample CCCCCCCC(=O)N[C@H](CN1CCCC1)[C@H](O)c1ccc2c(c1)OCCO2 ; Cmax observed: 67.2

====

Assay details: Rifampin drug interaction study: eliglustat pharmacokinetics in healthy adults
Assay type: in vivo, human
Condition details: human, plasma, po, Cmax, CYP2D6 non-PMs (N = 18), eliglustat 127 mg BID + rifampin 600 mg oral QD, concomitant period Days 2 to 6; mean (SD)
Measure name: Cmax (ng/mL)
One number for each entry, in ng/mL.

Field Cmax (entry CCCCCCCC(=O)N[C@H](CN1CCCC1)[C@H](O)c1ccc2c(c1)OCCO2 ) reads 4.67

====

Assay details: Rifampin drug interaction study: eliglustat pharmacokinetics in healthy adults
Type: in vivo, human
Condition details: human, plasma, oral, 84 mg, tmax, CYP2D6 PMs, eliglustat 84 mg BID, monotherapy period Days 2 to 6; median (minimum, maximum)
Measure name: Tmax (h)
One number for each entry, in h.

Sample CCCCCCCC(=O)N[C@H](CN1CCCC1)[C@H](O)c1ccc2c(c1)OCCO2 [eliglustat] ; Tmax observed: 3

====

Assay details: Rifampin drug interaction study: eliglustat pharmacokinetics in healthy adults
Type: in vivo, human
Condition details: human, plasma, oral, 127 mg, Cmax, IMs/EMs only (N = 14), eliglustat 127 mg BID, monotherapy period Days 2 to 6; mean (SD)
Measure name: Cmax (ng/mL)
Answers are plain numbers, in ng/mL.

The recorded Cmax for entry CCCCCCCC(=O)N[C@H](CN1CCCC1)[C@H](O)c1ccc2c(c1)OCCO2 equals 54.7

====

Format: in vivo, human
Condition details: human, plasma, oral, 84 mg, AUC0-∞, eliglustat 84 mg single dose, Day 1, all (N = 34); mean (SD)
Measure name: AUC(0-inf) (ng·h/mL)
Numbers only, in ng·h/mL.

AUC(0-inf) recorded for this molecule, CCCCCCCC(=O)N[C@H](CN1CCCC1)[C@H](O)c1ccc2c(c1)OCCO2 [eliglustat] , is 73.2

====

Assay details: Rifampin drug interaction study: eliglustat pharmacokinetics in healthy adults
Type: in vivo, human
Condition details: human, plasma, po, tmax, CYP2D6 non-PMs (N = 18), eliglustat 127 mg BID + rifampin 600 mg oral QD, concomitant period Days 2 to 6; median (minimum, maximum)
Measure name: Tmax (h)
Give bare numbers, in h.

Record CCCCCCCC(=O)N[C@H](CN1CCCC1)[C@H](O)c1ccc2c(c1)OCCO2 [eliglustat] . Reported Tmax: 1.5

====

Assay details: Paroxetine drug interaction study: eliglustat pharmacokinetics in healthy adults
Assay type: in vivo, human
Condition details: human, plasma, oral, 84 mg
Measure name: Tmax (h)
Numbers only, in h.

Measured Tmax, CCCCCCCC(=O)N[C@H](CN1CCCC1)[C@H](O)c1ccc2c(c1)OCCO2 : 2

====

Assay details: Paroxetine drug interaction study: eliglustat pharmacokinetics in healthy adults
Assay type: in vivo, human
Condition details: human, plasma, oral, 84 mg, AUC0-τ, eliglustat 84 mg BID, Days 2 to 8, all (N = 34); 0 to 12 h; mean (SD)
Measure name: AUC (ng·h/mL)
Answers are plain numbers, in ng·h/mL.

Record CCCCCCCC(=O)N[C@H](CN1CCCC1)[C@H](O)c1ccc2c(c1)OCCO2 [eliglustat] . Reported AUC: 120

====

Assay details: Paroxetine drug interaction study: eliglustat pharmacokinetics in healthy adults
Format: in vivo, human
Condition details: human, plasma, oral, Cmax, eliglustat 84 mg BID + paroxetine 30 mg QD, Days 9 to 18, CYP2D6 EMs only (N = 30); mean (SD)
Measure name: Cmax (ng/mL)
Numbers only, in ng/mL.

Form field Cmax, entry CCCCCCCC(=O)N[C@H](CN1CCCC1)[C@H](O)c1ccc2c(c1)OCCO2 : 110

====

Format: in vivo, human
Condition details: human, plasma, oral, 84 mg, AUC0-τ, eliglustat 84 mg BID, Days 2 to 8, all (N = 33); 0 to 12 h; mean (SD)
Measure name: AUC (ng·h/mL)
Give bare numbers, in ng·h/mL.

Given item CCCCCCCC(=O)N[C@H](CN1CCCC1)[C@H](O)c1ccc2c(c1)OCCO2 , the value recorded as its AUC is 113

====

Assay details: Paroxetine drug interaction study: eliglustat pharmacokinetics in healthy adults
Type: in vivo, human
Condition details: human, plasma, oral, 84 mg, AUC0-∞, eliglustat 84 mg single dose, Day 1, CYP2D6 EMs only (N = 28); mean (SD)
Measure name: AUC(0-inf) (ng·h/mL)
Answers are plain numbers, in ng·h/mL.

The reported AUC(0-inf) of the compound CCCCCCCC(=O)N[C@H](CN1CCCC1)[C@H](O)c1ccc2c(c1)OCCO2 was 77.4

====

Assay details: Rifampin drug interaction study: eliglustat pharmacokinetics in healthy adults
Assay type: in vivo, human
Condition details: human, plasma, po, AUC0-τ, IMs/EMs only (N = 13), eliglustat 127 mg BID + rifampin 600 mg oral QD, concomitant period Days 2 to 6; 0 to 12 h; mean (SD)
Measure name: AUC (ng·h/mL)
Numbers only, in ng·h/mL.

Just so you know, measured AUC for CCCCCCCC(=O)N[C@H](CN1CCCC1)[C@H](O)c1ccc2c(c1)OCCO2 [eliglustat] came out at 31
